Test system: Human Ito cells (LI90)
METHOD: Test for inhibition of collagen synthesis (3H proline labeling, hTGF β-1 treated cells)
Type: cell-based
RUN_CONDITIONS: cultured with test compound in MEM containing 10 PM hTGF β-1 and 2% PDS for 16 hours, 3H proline labeling 24 hours, read-out: IC50 (μM), concentration at which the collagen synthesis is inhibited by 50% (T/C = 0.5)
PROPERTY: IC50 (µM)

A selection of reference data follows.
Incoming: What value of IC50 has been reported for the following compound? CC(=O)OC1=CCc2c(Oc3ccc(NC(=O)c4ccc(Cl)c(Cl)c4)cn3)cccc21
Outgoing: 1.12

Incoming: What value of IC50 has been reported for the following compound? O=C(Nc1ccc(Oc2cccc3c2CCC3)nc1)c1ccc(Cl)c(Cl)c1
Outgoing: 2.7

Incoming: What value of IC50 has been reported for the following compound? O=C(Nc1ccc(Cl)c(Cl)c1)c1ccc(Oc2cccc3c2CCCC3=O)nc1
Outgoing: 2.29

(1) O=C(Nc1ccc(Oc2cccc3c2CCCC3=O)nc1)c1ccc(Cl)c(Cl)c1
(2) CC(O)c1ccc(Oc2ccc(NC(=O)c3ccc(Cl)c(Cl)c3)cn2)cc1 (stereo not shown)
(3) CC(=O)c1ccc(Oc2ccc(C(=O)Nc3ccc(C(F)(F)F)cc3)cn2)cc1
Incoming: Sort these compounds on IC50 so the largest reading comes first. Response field: labels, in requested order.
Outgoing: 2, 1, 3
(2: 3.72 µM, 1: 2.34 µM, 3: 0.92 µM)

---

System: Human Ito cells (LI90)
METHOD: Test for inhibition of collagen synthesis (3H proline labeling, hTGF β-1 treated cells)
Format: cell-based
RUN_CONDITIONS: cultured with test compound in MEM containing 10 PM hTGF β-1 and 2% PDS for 16 hours, 3H proline labeling 24 hours, read-out: IC50 (μM), concentration at which the collagen synthesis is inhibited by 50% (T/C = 0.5)
PROPERTY: IC50 (µM)

Incoming: What value of IC50 has been reported for the following molecule? CC1(c2ccc(Oc3ccc(NC(=O)c4ccc(Cl)c(Cl)c4)cn3)cc2)OCCO1
Outgoing: 3.88

Incoming: What value of IC50 has been reported for the following molecule? O=C(Nc1ccc(Oc2cccc3c2CCC3O)nc1)c1ccc(Cl)c(Cl)c1 (stereo not shown)
Outgoing: 2.15

(P) O=C(Nc1ccc(Oc2ccc3c(c2)C(=O)CCCC3)nc1)c1ccc(Cl)c(Cl)c1
(Q) O=C(Nc1ccc(C(F)(F)F)cc1)c1ccc(Oc2cccc3c2CCC3=O)nc1
Incoming: Could you please tell me which of these two has the higher IC50: P or Q ? Write the label of whichever entry you select.
Outgoing: P

(A) O=C(Nc1ccc(Cl)c(Cl)c1)c1ccc(Oc2cccc3c2CCC3=O)nc1
(B) Cc1cccc(Oc2ccc(NC(=O)c3ccc(Cl)c(Cl)c3)cn2)c1C
Incoming: Could you please tell me which of these two has the higher IC50: A or B ? Write the label of whichever entry you select.
Outgoing: A
(A: 2.52 µM, B: 1.58 µM)

---

Test system: Human Ito cells (LI90)
METHOD: Test for inhibition of collagen synthesis (3H proline labeling, hTGF β-1 treated cells)
Type: cell-based
RUN_CONDITIONS: cultured with test compound in MEM containing 10 PM hTGF β-1 and 2% PDS for 16 hours, 3H proline labeling 24 hours, read-out: IC50 (μM), concentration at which the collagen synthesis is inhibited by 50% (T/C = 0.5)
PROPERTY: IC50 (µM)

Incoming: What value of IC50 has been reported for the following molecule? O=C(Nc1ccc(Oc2cccc3c2CC=C3)nc1)c1ccc(Cl)c(Cl)c1
Outgoing: 2.43

Incoming: What value of IC50 has been reported for the following molecule? O=C(Nc1ccc(Oc2cccc3c2CCC3=O)nc1)c1ccc(Cl)c(Cl)c1
Outgoing: 2.14

Incoming: What value of IC50 has been reported for the following molecule? CC(=O)c1ccc(Oc2ccc(NC(=O)c3ccc(Cl)c(Cl)c3)cn2)cc1C
Outgoing: 2.92

Incoming: What value of IC50 has been reported for the following molecule? O=C(Nc1ccc(Oc2cccc3c2CCC3=O)nc1)c1ccc(C(F)(F)F)cc1
Outgoing: 2.9
